Reported apparent KD of MS2 coat protein is given for each of the following sequences.
tested on: MS2 coat protein; test: apparent KD of MS2 coat protein; designed switch direction (-1 OFF switch, 1 ON switch): -1; higher = weaker reporter binding; settings: input ligand: microRNA oligo, concentration not stated
Respond numerically; units are nM and should not be typed.

# count of solved cases: 4
residue_codes	measured_target	apparent KD of MS2 coat protein, nM
AACCUGAGGCAAAGCUUUAGGUGUACAUGAGGAUCACCCAUGUAGGAUAUGGUAGGCAAAGCUUACCAGAAGGACAUAAUGAUG [Mat - Exclusion NG 3 - Mod of JL - D47] (Eterna round: R96, puzzle: Exclusion NG 3)	MS2 coat protein	45.1
AGCUGUGGCCGAGGAUAUGACAUGAGGAUCACCCAUGUACCAGAUUAGGCCUGGUAACAGGCUCAUCAGAAGGCGGUCUCAGCA [Eli eng2 - 016] (Eterna round: R96, puzzle: Exclusion NG 2)	MS2 coat protein	10.7
UUGGUUGUGGUAGGAUAUCCGUUGGAAACCUUCGGAGAAGGACCACAGUCACUGGGUCUUUGUCUGGUGGACGGUUUCGACCGU [pwkr exNG1 F6.23] (Eterna round: R96, puzzle: Exclusion NG 1)	MS2 coat protein	281
CUUAGUAUCUAGGAUAUCUAGUACAUAGUAUCUAGAGAAGGAGAUACAUGAGGAUCACCCAUGUUCUGUGUUCU [Exclusion 6 - 1:b] (Eterna round: R96, puzzle: Exclusion 6)	MS2 coat protein	18.2

Missing value: apparent KD of MS2 coat protein, MS2 coat protein, entry ACGCUCCGUGUAGGAUAUCGCCGUACCACUCGGCGAGAAGGACAUGAGGAUCACCCAUGUAUGUUAUUAUCACGUGUGGCGCGC [Design 51] (Eterna round: R96, puzzle: Exclusion NG 1) . Fill in?
15.2
